Numbers sourced from patent US20130241815A1.

Assay: Preparation of ink and evaluation of solubility in low polar solvents (saturated solution, absorption maximum, εC)
Assay type: physicochemical
Settings: Tetradecane solution
For each entry below, report its εC value.
Answers are plain numbers, in cm⁻¹.

// for each compound below, give its εC
1. CCCCC(CC)CNc1ccc(NCC(CC)CCCC)c2c1C(=O)c1ccc(C(=O)OCCC)cc1C2=O (centres unmarked)
2. CCCCC(CC)CNc1ccc(NCC(CC)CCCC)c2c1C(=O)c1ccc(C(=O)OCC(C)C)cc1C2=O (centres unmarked)
3. CCCCC(CC)CNc1ccc(NCC(CC)CCCC)c2c1C(=O)c1ccccc1C2=O (centres unmarked)
4. CNc1ccc(Nc2ccc(C)cc2)c2c1C(=O)c1ccccc1C2=O [Comparative Compound 1, C.I. Solvent Blue 11, reference compound]

Out:
1300
1200
1600
12

###

For each entry below, report its Absorption maximum wavelength value.
Assay: Preparation of ink and evaluation of solubility in low polar solvents (saturated solution, absorption maximum, εC)
Assay type: physicochemical
Conditions: ISOPAR G solution
Numbers only, in nm.

// solved cases for Absorption maximum wavelength follow
compound="CNc1ccc(Nc2ccc(C)cc2)c2c1C(=O)c1ccccc1C2=O [Comparative Compound 1, C.I. Solvent Blue 11, reference compound]" measurement_units=nm numeric_readout=594
compound="CCCCC(CC)CNc1ccc(NCC(CC)CCCC)c2c1C(=O)c1ccc(C(=O)OCCC)cc1C2=O (centres unmarked) [Illustrative Compound 4]" measurement_units=nm numeric_readout=666
compound="CCCCC(CC)CNc1ccc(NCC(CC)CCCC)c2c1C(=O)c1ccc(C(=O)OCC(C)C)cc1C2=O (centres unmarked) [Illustrative Compound 3]" measurement_units=nm numeric_readout=667

Kindly review the next compound as well.
In: Which Absorption maximum wavelength is reported for this compound? CCCCC(CC)CNc1ccc(NCC(CC)CCCC)c2c1C(=O)c1ccccc1C2=O (centres unmarked) [Illustrative Compound 1]
Out: 649

###

Test: Preparation of ink and evaluation of solubility in low polar solvents (saturated solution, absorption maximum, εC)
Type: physicochemical
Settings: n-Decane, saturated solution, room temperature
observation-type: Solubility (% by mass)
Give bare numbers, in % by mass.

// solved cases for Solubility follow
compound="CCCCC(CC)CNc1ccc(NCC(CC)CCCC)c2c1C(=O)c1ccccc1C2=O (stereo not shown)" observation_type=Solubility numeric_readout=6.6
compound="CCCCC(CC)CNc1ccc(NCC(CC)CCCC)c2c1C(=O)c1ccc(C(=O)OCC)cc1C2=O (stereo not shown)" observation_type=Solubility numeric_readout=4.7
compound="CC(C)CNc1ccc(Nc2ccccc2)c2c1C(=O)c1ccccc1C2=O [Comparative Compound 2, reference compound]" observation_type=Solubility numeric_readout=0.7
compound="CCCCC(CC)CNc1ccc(NCC(CC)CCCC)c2c1C(=O)c1ccc(C(=O)OCC(C)C)cc1C2=O (stereo not shown)" observation_type=Solubility numeric_readout=7.5

In: Which Solubility is reported for this compound? CCCCC(CC)CNc1ccc(NCC(CC)CCCC)c2c1C(=O)c1ccc(C(=O)OCCC)cc1C2=O (stereo not shown)
Out: 9.5

###

Assay: Preparation of ink and evaluation of solubility in low polar solvents (saturated solution, absorption maximum, εC)
Format: physicochemical
Conditions: Decalin solution
Protocol: Each of Illustrative Compounds 1 to 4 and Comparative Compounds 1, 2 and 4 was dissolved in each of the solvents of n-decane, tetradecane, ISOPAR M, and ISOPAR G, thereby preparing an ink. On that occasion, the solubility of each of the compounds in each of the solvents was measured in the following manner. […]
For each entry below, report its εC value.
Numbers only, in cm⁻¹.

// solved cases for εC follow
compound="CCCCC(CC)CNc1ccc(NCC(CC)CCCC)c2c1C(=O)c1ccc(C(=O)OCC(C)C)cc1C2=O (stereo not shown)" numeric_readout=3100
compound="C=CCn1c(N=Nc2ccc(N(CCC)CCC)cc2NC(C)=O)nc(C#N)c1C#N [Comparative Compound 4, reference compound]" numeric_readout=7
compound="CNc1ccc(Nc2ccc(C)cc2)c2c1C(=O)c1ccccc1C2=O [Comparative Compound 1, C.I. Solvent Blue 11, reference compound]" numeric_readout=26

Kindly review the next compound as well.
In: Which εC is reported for this compound? CCCCC(CC)CNc1ccc(NCC(CC)CCCC)c2c1C(=O)c1ccccc1C2=O (stereo not shown)
Out: 3400

###

Assay: Preparation of ink and evaluation of solubility in low polar solvents (saturated solution, absorption maximum, εC)
Type: physicochemical
Details: Decalin solution
observation-type: Absorption maximum wavelength (nm)
Answers are plain numbers, in nm.

compound="C=CCn1c(N=Nc2ccc(N(CCC)CCC)cc2NC(C)=O)nc(C#N)c1C#N [Comparative Compound 4, reference compound]" observation_type="Absorption maximum wavelength" numeric_readout=520
compound="CCCCC(CC)CNc1ccc(NCC(CC)CCCC)c2c1C(=O)c1ccccc1C2=O (stereo not shown) [Illustrative Compound 1]" observation_type="Absorption maximum wavelength" numeric_readout=645
compound="CCCCC(CC)CNc1ccc(NCC(CC)CCCC)c2c1C(=O)c1ccc(C(=O)OCC(C)C)cc1C2=O (stereo not shown) [Illustrative Compound 3]" observation_type="Absorption maximum wavelength" numeric_readout=662

Kindly review the next compound as well.
In: Which Absorption maximum wavelength is reported for this compound? CNc1ccc(Nc2ccc(C)cc2)c2c1C(=O)c1ccccc1C2=O [Comparative Compound 1, C.I. Solvent Blue 11, reference compound]
Out: 636
